target or test system: c-RAF (h) (Homo sapiens, UniProt P04049)
Sequence (P04049 whole entry): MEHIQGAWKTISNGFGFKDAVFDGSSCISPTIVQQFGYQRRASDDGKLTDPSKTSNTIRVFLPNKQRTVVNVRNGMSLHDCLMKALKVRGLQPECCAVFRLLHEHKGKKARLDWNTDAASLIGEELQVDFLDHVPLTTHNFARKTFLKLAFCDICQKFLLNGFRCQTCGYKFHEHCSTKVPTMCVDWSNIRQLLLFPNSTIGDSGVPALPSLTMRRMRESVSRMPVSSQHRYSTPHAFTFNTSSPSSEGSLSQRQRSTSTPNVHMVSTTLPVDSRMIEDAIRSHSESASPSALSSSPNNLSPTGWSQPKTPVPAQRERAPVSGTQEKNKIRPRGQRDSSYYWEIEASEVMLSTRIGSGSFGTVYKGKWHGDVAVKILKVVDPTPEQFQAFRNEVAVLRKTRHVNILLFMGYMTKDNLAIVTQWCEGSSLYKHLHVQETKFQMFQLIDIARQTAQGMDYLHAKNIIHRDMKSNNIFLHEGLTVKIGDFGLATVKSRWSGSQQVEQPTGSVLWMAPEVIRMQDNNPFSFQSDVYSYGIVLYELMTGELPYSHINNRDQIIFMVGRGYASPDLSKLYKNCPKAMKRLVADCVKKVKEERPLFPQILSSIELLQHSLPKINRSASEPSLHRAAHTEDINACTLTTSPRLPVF
test name: Kinase activity profiling service (Millipore)
Assay type: biochemical
condition set: read-out: Kinase inhibitory activity (IC50, uM) c-RAF (h)
measured attribute: IC50 (µM)
A number alone suffices; assume µM.

Would you kindly share the measured IC50 for Cc1ccc(NC(=O)Nc2ccc(Cl)c(C(F)(F)F)c2)cc1-c1ccc2c(C(=O)NCCN3CCOCC3)n[nH]c2c1 ? 137

Origin of the recorded values: patent US8754209B2
